study system: T1, human OX40 expressed on DO11.10 cells (DO11.10-hOX40) (human, UniProt P43489 29-277)
T1 sequence: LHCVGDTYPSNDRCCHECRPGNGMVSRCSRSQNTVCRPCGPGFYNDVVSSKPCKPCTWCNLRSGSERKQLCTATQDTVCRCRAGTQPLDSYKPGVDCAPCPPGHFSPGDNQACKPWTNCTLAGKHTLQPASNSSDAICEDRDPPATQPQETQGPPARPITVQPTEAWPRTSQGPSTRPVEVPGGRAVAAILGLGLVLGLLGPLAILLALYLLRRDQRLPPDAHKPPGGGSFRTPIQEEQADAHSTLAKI
assay comment: cell-based or functional assay
quantity kind: SEA assay (PBMC), hIL-2 release EC50, crosslinked (nM)
State the answer as a number, implicitly in nM.

Answered examples (2):
Task item: I have this binder here, FS20-22-49AA/FS30-35-14 (bispecific antibody, human IgG1, kappa, L234A L235A, V domains shown, IgG1 with LALA; also called OX40/CD137 mAb^2) VH: EVQLLESGGGLVQPGGSLRLSCAASGFTFSAYNIHWVRQAPGKGLEWVSDISPYGGATNYADSVKGRFTISRDNSKNTLYLQMNSLRAEDTAVYYCARNLYELSAYSYGADYWGQGTLVTVSS VL: EIVLTQSPGTLSLSPGERATLSCRASQSVSSSYLAWYQQKPGQAPRLLIYGASSRATGIPDRFSGSGSGTDFTLTISRLEPEDFAVYYCQQYYYSSPITFGQGTKVEIKR , and I need its recorded SEA assay (PBMC), hIL-2 release EC50, crosslinked.
Reply: 0.14

Task item: Requested field: SEA assay (PBMC), hIL-2 release EC50, crosslinked. Item: FS20-22-49AA/FS30-5-37 (bispecific antibody, human IgG1, kappa, L234A L235A, V domains shown, IgG1 with LALA; also called OX40/CD137 mAb^2) VH: EVQLLESGGGLVQPGGSLRLNCAASGFTFSSYAMSWVRQAPGKGLEWVSAISGSGGSTYYADSVKGRFTISRDNSKNTLYLQMNSLRAEDTAVYYCARSYDKYWGSSIYSGLDYWGQGTLVTVSS VL: EIVLTQSPGTLSLSPGERATLSCRASQSVSSSYLAWYQQKPGQAPRLLIYGASSRATGIPDRFSGSGSGTDFTLTISRLEPEDFAVYYCQQYYSYYPVTFGQGTKVEIKR
Reply: 0.5

Next:
Task item: Bench note: what SEA assay (PBMC), hIL-2 release EC50, crosslinked did FS20-22-49AA/FS30-10-12 (bispecific antibody, human IgG1, kappa, L234A L235A, V domains shown, IgG1 with LALA; also called OX40/CD137 mAb^2) VH: EVQLLESGGGLVQPGGSLRLSCAASGFTFSSYDMSWVRQAPGKGLEWVSDIDPTGSKTDYADSVKGRFTISRDNSKNTLYLQMNSLRAEDTAVYYCARDLTVYGFDYWGQGTLVTVSS VL: EIVLTQSPGTLSLSPGERATLSCRASQSVSSSYLAWYQQKPGQAPRLLIYGASSRATGIPDRFSGSGSGTDFTLTISRLEPEDFAVYYCQQSYSYPVTFGQGTKVEIKR show?
Reply: 2.33

Task item: What value of SEA assay (PBMC), hIL-2 release EC50, crosslinked has been recorded for this entry: FS20-22-49AA/FS30-10-3 (bispecific antibody, human IgG1, kappa, L234A L235A, V domains shown, IgG1 with LALA; also called OX40/CD137 mAb^2) VH: EVQLLESGGGLVQPGGSLRLSCAASGFTFSSYDMSWVRQAPGKGLEWVSDIDPTGSKTDYADSVKGRFTISRDNSKNTLYLQMNSLRAEDTAVYYCARDLNVYGFDYWGQGTLVTVSS VL: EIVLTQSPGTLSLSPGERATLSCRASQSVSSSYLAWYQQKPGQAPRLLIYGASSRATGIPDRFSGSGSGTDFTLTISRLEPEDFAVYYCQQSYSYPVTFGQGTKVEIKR
Reply: 0.38
